- System Under Test: T1, recombinant human CD123-Fc (human, UniProt P26951 19-305)
- T1 construct: not shown: Fc part of CD123-Fc
- T1 sequence: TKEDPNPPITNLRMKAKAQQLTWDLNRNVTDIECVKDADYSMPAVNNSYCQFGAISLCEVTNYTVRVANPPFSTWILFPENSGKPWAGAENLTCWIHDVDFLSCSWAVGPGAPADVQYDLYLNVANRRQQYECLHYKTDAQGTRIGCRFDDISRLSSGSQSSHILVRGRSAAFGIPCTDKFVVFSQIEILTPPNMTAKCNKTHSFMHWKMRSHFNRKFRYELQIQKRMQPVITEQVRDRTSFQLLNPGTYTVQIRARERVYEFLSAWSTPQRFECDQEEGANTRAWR
- Procedure Summary: phage ELISA, A450 target/A450 IgG1-Fc
Recorded Metric: ELISA_avg

{"Binder": "SEQ ID NO 699 (designed binder) MGSWYEFYDRLSAIYARLQALGGSEAELAAFEKEIAAFESELQAYKGKGNPEVEDLRWYAADIRYMLQAYRHN", "Observed Value": "5.3 ratio"}
{"Binder": "SEQ ID NO 660 (designed binder) MGSWHEFDDRLDAIMSRLDALGGSEAELATFEAEIATFEFVLQLYKGKGNPEVEALLAEAYAIDWELEAYRHN", "Observed Value": "7.7 ratio"}
{"Binder": "SEQ ID NO 721 (designed binder) MGSWYEFEERLWAIEERLYALGGSEAELAAFEKEIAAFESELQAYKGKGNPEVEYLRYEAAWIRDFLQAYRHN", "Observed Value": "5.4 ratio"}
{"Binder": "SEQ ID NO 651 (designed binder) MGSWVEFFWRLDAIEDRLWALGGSEAELANFEFEIADFEAWLQKYKGKGNPEVEALHSEADAIQLELRAYRHN", "Observed Value": "4 ratio"}
{"Binder": "SEQ ID NO 665 (designed binder) MGSWYEFEDRLDAILYRLLALGGSEAELAWFERDIAFFESELQWYKGKGNPEVEALEWEAMAIDDELFAYRHN", "Observed Value": "4.3 ratio"}
